# ASSAY_NOTES: chemical genetic growth profiling, strain panel (AID 1159580);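 note: tested at 20 µM; growth read once vehicle control cultures reached saturation at 30 °C; 1 = growth at the plate median or of vehicle wells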
# ASSAY_CONDITIONS: S. cerevisiae deletion strains, growth OD, locus YMR231W, strain pep5, stronger effect = lower value
Out of some 5,500 compounds screened, about 2,000 (36%) were called active. Not shown: some 18% with an inconclusive outcome. Some of the results follow.
Provide the recorded normalized growth for the entries that follow.
Numbers only.

Consider the following illustrative entries.
- COMPOUND: "Cc1ccc2c(c1)CC[C@H]1CC(=O)CC[C@]21C"
  normalized growth: 0.997
- COMPOUND: "C[N+](C)(C)CCOP(=O)([O-])OP(=O)(O)OC[C@H]1OC(n2ccc(N)nc2=O)[C@H](O)[C@@H]1O (some centres undefined)"
  normalized growth: 0.989
- COMPOUND: "CCCCCCCC/C=C/CCCCCCCCOP(=O)([O-])OCC[N+](C)(C)C"
  normalized growth: 0.065
- COMPOUND: "COc1ccc2c(c1)[C@@]1(C)CCC(=O)C[C@H]1CC2"
  normalized growth: 0.968
- COMPOUND: "O=[N+]([O-])O[C@H]1CO[C@H]2[C@@H]1OC[C@H]2O[N+](=O)[O-]"
  normalized growth: 1
- COMPOUND: "CC1(C)C2CC[C@]3(C)C(C(=O)C=C4[C@@H]5C[C@@](C)(C(=O)O)CC[C@]5(C)CC[C@]43C)[C@@]2(C)CC[C@@H]1OC(=O)CCC(=O)O (some centres undefined)"
  normalized growth: 0.978

Lab note: each compound below needs its normalized growth filled in.
1. CC1(C)C2CC[C@]3(C)C(C(=O)C=C4[C@@H]5C[C@@](C)(C(=O)O)CC[C@]5(C)CC[C@]43C)[C@@]2(C)CC[C@@H]1O (some centres undefined)
2. COc1cccc2c1CCC1CC(=O)CCC21C (centres undefined)
3. CC1(C)C2CC[C@]3(C)C(C(=O)C=C4[C@H]5C[C@@](C)(C(=O)O)CC[C@]5(C)CC[C@]43C)[C@@]2(C)CC[C@@H]1O (some centres undefined)

Result:
0.99
0.99
0.984

###

# ASSAY_NOTES: chemical genetic growth profiling, strain panel (AID 1159580)
# ASSAY_CONDITIONS: S. cerevisiae deletion strains, growth OD, locus YNL250W, strain rad50, stronger effect = lower value
Out of some 5,500 compounds screened, about 2,000 (36%) were called active. Inconclusive results (about 18%) are left out. The list shows a part of the results.
VALUE_TYPE: normalized growth
Numbers only.

Consider the following illustrative entries.
- MOLECULE: "COc1ccc2cc1Oc1ccc(cc1)C[C@H]1c3cc(c(OC)cc3CCN1C)Oc1c(OC)c(OC)cc3c1[C@H](C2)N(C)CC3"
  normalized growth: 1.02
- MOLECULE: "CCC1(c2ccccc2)C(=O)NCNC1=O"
  normalized growth: 0.998
- MOLECULE: "Oc1ccc(O)cc1"
  normalized growth: 1.03
- MOLECULE: "CCc1ccc(CCOc2ccc(CC3SC(=O)NC3=O)cc2)nc1 (stereo unspecified)"
  normalized growth: 0.995
- MOLECULE: "CCC1(C)CC(=O)NC1=O (stereo unspecified)"
  normalized growth: 1.01

Lab note: each molecule below needs its normalized growth filled in.
1. O=c1ccc2ccccc2o1
2. CC(C(=O)O)c1ccc2c(c1)[nH]c1ccc(Cl)cc12 (stereo unspecified)

Result:
1.01
0.885

Lab note: each molecule below needs its normalized growth filled in.
1. Cc1ccc(O)cc1
2. CC1(C)C2CC[C@]3(C)C(C(=O)C=C4[C@@H]5C[C@@](C)(C(=O)O)CC[C@]5(C)CC[C@]43C)[C@@]2(C)CC[C@@H]1OC(=O)CCC(=O)O (stereo partly specified)
3. CCOC(=O)/C=C(\C)OP(=O)(OC)OC
4. O=c1ccc2cc(O)c(O)cc2o1
5. CO[C@H]1C[C@H](O[C@H]2[C@H](C)[C@@H](OC3O[C@H](C)C[C@H](N(C)C)[C@H]3O)[C@@H](C)C[C@]3(CO3)C(=O)[C@H](C)[C@@H](O)[C@@H](C)[C@@H](C)OC(=O)[C@@H]2C)O[C@@H](C)[C@@H]1O (stereo partly specified)
6. C1CCc2nnnn2CC1
7. CC(=O)O[C@H]1C(=O)[C@@]2(C)C([C@H](OC(=O)c3ccccc3)[C@]3(O)C[C@H](OC(=O)[C@H](O)[C@@H](NC(=O)c4ccccc4)c4ccccc4)C(C)=C1C3(C)C)[C@]1(OC(C)=O)CO[C@@H]1C[C@@H]2O (stereo partly specified)
8. CC1(C)C2CC[C@]3(C)C(C(=O)C=C4[C@H]5C[C@@](C)(C(=O)O)CC[C@]5(C)CC[C@]43C)[C@@]2(C)CC[C@@H]1O (stereo partly specified)

Result:
0.996
0.949
0.983
1.01
1.01
1
0.921
1.01

###

Provide the recorded normalized growth for the entries that follow.
# ASSAY_NOTES: chemical genetic growth profiling, strain panel (AID 1159580)
# ASSAY_CONDITIONS: S. cerevisiae deletion strains, growth OD, locus YCL061C, strain MRC1 (second series), stronger effect = lower value
Among all 5,500 compounds or so, about 2,000 (36%) were called active. Roughly 18% stayed inconclusive and do not appear here. Some of the results follow.
Give bare numbers.

Consider the following illustrative entries.
- COMPOUND: "C[C@H]1OC[C@@H](C[N+](C)(C)C)O1"
  VALUE_TYPE: "normalized growth"
  NUMERIC_RESULT: 1.01
- COMPOUND: "c1ccc2cc(CC3=NCCN3)ccc2c1"
  VALUE_TYPE: "normalized growth"
  NUMERIC_RESULT: 1
- COMPOUND: "CCC1(c2ccccc2)C(=O)NCNC1=O"
  VALUE_TYPE: "normalized growth"
  NUMERIC_RESULT: 0.993

Lab note: each compound below needs its normalized growth filled in.
1. CCCCCCCCCCCCCCC[C@H](O)[C@H](N)CO
2. O[Si](CCCN1CCCCC1)(c1ccc(F)cc1)C1CCCCC1 (stereo unspecified)
3. CC(C)[N+](C)(CCOC(=O)C1c2ccccc2Oc2ccccc21)C(C)C

Result:
[0.987, 0.986, 1.01]

###

# ASSAY_NOTES: chemical genetic growth profiling, strain panel (AID 1159580);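 note: tested at 20 µM; growth read once vehicle control cultures reached saturation at 30 °C; 1 = growth at the plate median or of vehicle wells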
# ASSAY_CONDITIONS: S. cerevisiae deletion strains, growth OD, locus YER016W, strain bim1
Hit rate of the full screen: of about 5,500 compounds, about 2,000 (36%) were called active. Not shown: some 18% with an inconclusive outcome. Cut-off read from the data, not from the text of the source: active = normalized growth mostly below about 0.91 (no sharp cut-off); inconclusive = no clear call, values can overlap the other calls; inactive = mostly above about 0.92. Some of the results follow.
Answer with one of the outcomes given here: true = active, false = inactive

- COMPOUND: "CC(C)[N+](C)(CCOC(=O)C1c2ccccc2Oc2ccccc21)C(C)C"
  LABEL: "false"
- COMPOUND: "CC(=O)O[C@@](C)(CCC=C(C)C)C1CC=C(C)CC1 (stereo partly drawn)"
  LABEL: "false"
- COMPOUND: "CCCCCCCCCCCCCCCCOP(=O)([O-])OCC[N+](C)(C)C"
  LABEL: "true"

Kindly consider the entry below.
Q: How did this test come out for `NC(=O)N1c2ccccc2CC(=O)c2ccccc21` ?
Result: false

###

# ASSAY_NOTES: chemical genetic growth profiling, strain panel (AID 1159580);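 note: tested at 20 µM; growth read once vehicle control cultures reached saturation at 30 °C; 1 = growth at the plate median or of vehicle wells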
# ASSAY_CONDITIONS: S. cerevisiae deletion strains, growth OD, locus YGL086W, strain mad1
In all, about 5,500 compounds went through this assay and about 2,000 (36%) were called active. About 18% were inconclusive and are not listed. No stated cut-off is given here; in the data, active means normalized growth mostly below about 0.91 (no sharp cut-off); inconclusive means no clear call, values can overlap the other calls; inactive means mostly above about 0.92. The list shows a part of the results.
Answer with one of the outcomes given here: active, inactive

- COMPOUND: "COc1cc(OC)c2c(c1)OC(c1ccc(OC)c(OC)c1)C(O)C2 (configuration not stated)"
  LABEL: "inactive"

Q: How did this test come out for O=C1CC(c2ccccc2)Oc2ccccc21 (configuration not stated) ?
Result: inactive

Q: How did this test come out for `S=C=NCc1ccccc1` ?
Result: active

Q: How did this test come out for COc1ccc(C2CC(=O)c3ccc(OC)cc3O2)cc1 (configuration not stated) ?
Result: active

Q: How did this test come out for `COc1ccc([C@@H]2CC(=O)c3c(O)cc(O)cc3O2)cc1O` ?
Result: inactive

Q: How did this test come out for `c1ccc(CC2=NCCN2)cc1` ?
Result: inactive

Q: How did this test come out for `c1ccc(CN(CC2=NCCN2)c2ccccc2)cc1` ?
Result: inactive

###

# ASSAY_NOTES: chemical genetic growth profiling, strain panel (AID 1159580);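 note: tested at 20 µM; growth read once vehicle control cultures reached saturation at 30 °C; 1 = growth at the plate median or of vehicle wells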
# ASSAY_CONDITIONS: S. cerevisiae deletion strains, growth OD, locus YKL009W, strain mrt4, stronger effect = lower value
Out of some 5,500 compounds screened, about 2,000 (36%) were called active. Not shown: some 18% with an inconclusive outcome. The list shows a part of the results.
Please note: normalized growth exactly at 1 is false (0). Only values below 1 get true (1).

- COMPOUND: "COC1C(O)C(O)C(O)[C@@H](O)C1O (some centres not stated)"
  LABEL: "false (0)"

Kindly consider the entry below.
Q: # TODO verify normalized growth < 1 strictly for this compound: `COc1ccc(-c2coc3c(O)c(OC)ccc3c2=O)cc1`
Result: true (1)
